Tested on: S. aureus 25923
Test: MIC assay, 96 well broth dilution with MTT staining
Assay type: cell-based
Set-up: unit not given beside the values
Conditions: S. aureus 25923 (second strain line); BHI containing 0.1% casamino acids; 35-37° C., 20 h
Where a name gives a salt, the structure may show the parent alone.
measurement.type: MIC
Just the number, please, no unit after it.

Supply MIC value. Item: CN[C@H](CC(C)C)C(=O)N[C@H]1C(=O)N[C@@H](CC(N)=O)C(=O)N[C@H]2C(=O)N[C@H]3C(=O)N[C@H](C(=O)N[C@H](C(=O)O)c4cc(O)cc(O)c4-c4cc3ccc4O)[C@H](O)c3ccc(c(Cl)c3)Oc3cc2cc(c3O[C@@H]2O[C@H](CO)[C@@H](O)[C@H](O)[C@H]2O[C@H]2C[C@](C)(N)[C@H](O)[C@H](C)O2)Oc2ccc(cc2Cl)[C@H]1O [Vancomycin•HCl, reference compound]
3.9

====

Test system: E. faecalis 29212
Assay: MIC assay, 96 well broth dilution with MTT staining
Format: cell-based
Parameters: unit not given beside the values
Conditions: BHI containing 0.1% casamino acids, 35-37° C., 20 h
measurement.type: MIC

{"compound": "CCCCCCCCCCCCCCCCCCOC(COP(=O)(O)OC1OC(C(N)=O)C(C)(O)C(OC(N)=O)C1OC1OC(COC2OC(CO)C(O)C(O)C2O)C(OC2OC(C)C(OC3OC(C(=O)NC4=C(O)CCC4=O)C(O)C(O)C3O)C(O)C2NC(C)=O)C(O)C1NC(C)=O)C(=O)O.N (centres unmarked) [1e]", "measurement.type": "MIC", "result": 0.49}

Turning now to a further record.
Give MIC for this entry on E. faecalis 29212: CC(=O)NC1C(OC2C(COC3OC(CO)C(O)C(O)C3O)OC(OC3C(OP(=O)(O)OCC(OCCCCCCCCCCC(F)(F)C(F)(F)C(F)(F)C(F)(F)C(F)(F)C(F)(F)C(F)(F)C(F)(F)F)C(=O)O)OC(C(N)=O)C(C)(O)C3OC(N)=O)C(NC(C)=O)C2O)OC(C)C(OC2OC(C(=O)NC3=C(O)CCC3=O)C(O)C(O)C2O)C1O.N (centres unmarked) [1f]
0.98
